Where these numbers come from: ChEMBL document CHEMBL2062470

target: Botulinum neurotoxin type A (Clostridium botulinum (strain Hall / ATCC 3502 / NCTC 13319 / Type A)) (UniProt P0DPI1); experiment: Inhibition of Clostridium botulinum Hall BoNT/A protease activity using Ac-SNKTRIDEANQRATKML-NH2 as substrate at 20 uM after 5 mins by RP-HPLC analysis
Sequence (P0DPI1 2-448 limits assumed): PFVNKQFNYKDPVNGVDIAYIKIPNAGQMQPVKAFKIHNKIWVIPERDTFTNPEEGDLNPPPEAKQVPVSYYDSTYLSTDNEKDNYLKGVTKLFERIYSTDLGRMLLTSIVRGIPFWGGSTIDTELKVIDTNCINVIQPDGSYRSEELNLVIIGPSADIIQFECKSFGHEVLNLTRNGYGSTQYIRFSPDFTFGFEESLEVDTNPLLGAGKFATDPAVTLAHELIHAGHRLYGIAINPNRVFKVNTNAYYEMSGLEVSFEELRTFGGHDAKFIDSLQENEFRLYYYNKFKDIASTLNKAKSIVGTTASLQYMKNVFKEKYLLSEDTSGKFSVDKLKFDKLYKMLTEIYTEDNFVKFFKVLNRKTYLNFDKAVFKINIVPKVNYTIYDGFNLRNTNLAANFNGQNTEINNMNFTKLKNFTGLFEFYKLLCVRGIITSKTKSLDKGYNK
experimental_endpoint: inhibition (%)
Give the value, in units of %, as a plain number.

compound=COC(=O)[C@]12Oc3ccc(-c4ccc5c(c4O)C(=O)C4=C(O)C[C@@H](C)[C@H](O)[C@@]4(C(=O)OC)O5)c(O)c3C(=O)C1=C(O)C[C@@H](C)[C@@H]2O experimental_endpoint=inhibition measurement_unit=% assay_value=39.1
compound=Cc1cc(O)c2c(c1)C(=O)c1c(c(O)cc(O)c1-c1c(O)cc(O)c3c1C(=O)c1cc(C)cc(O)c1C3=O)C2=O experimental_endpoint=inhibition measurement_unit=% assay_value=40.3
compound="CC1CC(=O)c2c(cc3c(-c4c(O)cc(O)c5c(O)c6c(cc45)OC(C)CC6=O)c(O)cc(O)c3c2O)O1 (configuration not stated)" experimental_endpoint=inhibition measurement_unit=% assay_value=45

Consider the compound CCC[C@H]1Cc2cc3c(-c4c(O)cc(O)c5c(O)c6c(cc45)C[C@H](CCC)OC6=O)c(O)cc(O)c3c(O)c2C(=O)O1 and give its recorded inhibition.
85

Consider the compound C[C@H]1Oc2cc3c(-c4c(O)cc(O)c5c(O)c6c(cc45)O[C@H](C)[C@@H](C)C6=O)c(O)cc(O)c3c(O)c2C(=O)[C@@H]1C and give its recorded inhibition.
55

Consider the compound CCOc1ccc(C(Nc2cccnc2)c2cc(Cl)c3cccnc3c2O)cc1 (racemic) and give its recorded inhibition.
96.2

Consider the compound CCC[C@H]1Cc2cc3c(-c4c(O)cc(O)c5c(O)c6c(cc45)C[C@H](CCC)OC6=O)c(O)cc(O)c3c(O)c2C(=O)O1 (single isomer, unassigned; atropisomer) and give its recorded inhibition.
67
